# system-under-test: UniProt Q08210
# Sequence (Q08210 158-569 limits assumed): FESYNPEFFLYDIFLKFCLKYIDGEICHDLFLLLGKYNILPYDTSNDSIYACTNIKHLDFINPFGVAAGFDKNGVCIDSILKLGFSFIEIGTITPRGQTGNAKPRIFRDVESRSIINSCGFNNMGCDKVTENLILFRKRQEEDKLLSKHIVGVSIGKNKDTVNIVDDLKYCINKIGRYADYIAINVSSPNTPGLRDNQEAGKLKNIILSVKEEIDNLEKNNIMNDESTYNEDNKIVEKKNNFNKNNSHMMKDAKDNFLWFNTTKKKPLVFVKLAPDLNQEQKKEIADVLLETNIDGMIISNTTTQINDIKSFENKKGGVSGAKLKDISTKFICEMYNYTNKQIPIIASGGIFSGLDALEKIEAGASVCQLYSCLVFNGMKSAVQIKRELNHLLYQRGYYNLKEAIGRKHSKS
# protocol-description: Literature inhibition data for soluble recombinant PfDHODH (s-PfDHODH), dodecylubiquinone as substrate
# Type: biochemical
# protocol-conditions: converted from literature IC50 assuming competitive inhibition against DQ (Cheng and Prusoff); read-out: PfDHODH Ki
// map Ki to label using lower range: < 1 µM; middle range: ≥ 1 µM and < 4 µM; upper range: ≥ 4 µM

Solved cases below.
>  <molecule>
C/C(O)=C(/C#N)C(=O)Nc1ccc(-c2cccc(Cl)c2Cl)cc1Cl [Compound D20]

>  <class-name>
middle range

$$$$
>  <molecule>
Cc1cc(Nc2cnc3ccccc3c2)n2ncnc2n1 [Tz14]

>  <class-name>
lower range

$$$$
>  <molecule>
Cc1cc(N(C)c2ccc3ccccc3c2)n2ncnc2n1 [Tz11]

>  <class-name>
middle range

$$$$

Request: Which Ki category applies to Cc1ccc(Nc2cc(C)nc3ncnn23)c(F)c1 [Compound G36] here?
Result: upper range

Request: Which Ki category applies to Cc1cc(Nc2ccc(F)c(F)c2F)n2ncnc2n1 [Compound G31] here?
Result: upper range

Request: Which Ki category applies to Cc1cc(Nc2ccc(C)c(F)c2)n2ncnc2n1 [Compound G46] here?
Result: lower range

Request: Which Ki category applies to C/C(O)=C(/C#N)C(=O)Nc1ccc(-c2ccccc2Cl)cc1Cl [Compound D17] here?
Result: lower range

Request: Which Ki category applies to C/C(O)=C(/C#N)C(=O)Nc1ccc(-c2ccccc2)cc1Cl [Compound D28] here?
Result: upper range

Request: Which Ki category applies to Cc1ccc(Nc2cc(C)nc3ncnn23)cc1 [Compound G20] here?
Result: middle range

Request: Which Ki category applies to Cc1cc(Nc2cccc(F)c2)n2ncnc2n1 [Compound G13] here?
Result: middle range
